Target: CDKL1A (Homo sapiens)
Construct: purchased in-house DSF kinase panel (SGC-style construct names; the trailing letter is the construct ID)
Sequence (Q00532 1-303): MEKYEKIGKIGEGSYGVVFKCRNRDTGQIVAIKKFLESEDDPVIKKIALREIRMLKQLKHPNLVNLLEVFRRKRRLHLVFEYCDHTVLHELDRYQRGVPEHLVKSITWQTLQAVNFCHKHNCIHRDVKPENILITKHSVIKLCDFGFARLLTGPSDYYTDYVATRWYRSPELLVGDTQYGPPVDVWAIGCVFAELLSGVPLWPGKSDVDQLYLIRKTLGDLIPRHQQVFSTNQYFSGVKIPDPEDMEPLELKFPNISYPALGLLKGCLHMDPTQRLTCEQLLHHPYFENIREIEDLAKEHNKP
Experiment: DSF Tm panel
Assay type: binding
Conditions: 10 μM compound
Returns: string. Value is criterion met if measured ΔTm at 10 µM is below 0.3 °C, and criterion not met if it is greater than or equal to it.

# TODO verify ΔTm at 10 µM < 0.3 °C strictly for this compound: Cc1cc(Br)ccc1CNC(=O)Nc1ccc2cc1OCCOCCNc1ccn3ncc-2c3n1
criterion not met

Given the entry O=C(NCc1ccccc1)Nc1ccc2cc1OCCOCCNc1ccn3ncc-2c3n1 , would its reported ΔTm at 10 µM be below 0.3 °C?
criterion met

Record O=C(NCc1cccc(Cl)c1)Nc1ccc2cc1OCCOCCNc1ccn3ncc-2c3n1 : is its ΔTm at 10 µM strictly below 0.3 °C?
criterion met

Below 0.3 °C on ΔTm at 10 µM? Entry COc1cc(CNC(=O)Nc2ccc3cc2OCCOCCNc2ccn4ncc-3c4n2)ccc1F
criterion not met

Is ΔTm at 10 µM of O=C(NCc1ccccc1Cl)Nc1ccc2cc1OCCOCCNc1ccn3ncc-2c3n1 strictly below 0.3 °C?
criterion not met

hey, is ΔTm at 10 µM for CN1CCN(C(=O)Nc2ccc3cc2OCCOCCNc2ccn4ncc-3c4n2)CC1 lower than 0.3 °C or not?
criterion met
